target: Peptide deformylase (Staphylococcus aureus, UniProt P68826)
measured-property: IC50 (nM)

>>> reported_measurement("CC(=O)NC(=O)[C@@H]1CCCN1C(=O)[C@H](CC1CCCC1)CN(O)C=O")
12
>>> reported_measurement("NC(=O)NC(=O)[C@@H]1CCCN1C(=O)[C@H](CC1CCCC1)CN(O)C=O")
2.2
>>> reported_measurement("O=CN(O)C[C@@H](CC1CCCC1)C(=O)N1CCC[C@H]1C(=O)NC(=O)NC1CCCCC1")
0.93

1 = O=CN(O)C[C@@H](CC1CCCC1)C(=O)N1CCC[C@H]1C(=O)NC(=O)C1CCCC1
2 = O=CN(O)C[C@@H](CC1CCCC1)C(=O)N1CCC[C@H]1C(=O)NC(=O)OC1CCCC1
**Query** Would you mind telling me which has the lower recorded IC50 between 1 and 2 ? Your choice should be expressed through its label.
**Result** 2

I = CCOC(=O)NC(=O)[C@@H]1CCCN1C(=O)[C@H](CC1CCCC1)CN(O)C=O
II = O=CN(O)C[C@@H](CC1CCCC1)C(=O)N1CCC[C@H]1C(=O)NC(=O)NCCCO
III = O=CN(O)C[C@@H](CC1CCCC1)C(=O)N1CCC[C@H]1C(=O)NC(=O)OC1CCCCC1
IV = COCC(=O)NC(=O)[C@@H]1CCCN1C(=O)[C@H](CC1CCCC1)CN(O)C=O
**Query** Place the items in sequence of falling IC50. Use the labels to give the ranking in the order requested.
**Result** IV, II, I, III
(IV: 8 nM, II: 3.2 nM, I: 2.2 nM, III: 1.5 nM)
